protocol summary: Henry solubility constant Hcp at 298.15 K (mol/(m3 Pa))
setup conditions: reference: Aprea et al. (2007)
observation type: Henry solubility constant Hcp
No unit in the answer, only the number.

Some entries whose results are on file:
CCOC(C)=O [ethyl ethanoate]	0.051
CCCC(=O)OCC [ethyl butanoate]	0.024
CCCCCCCCCC(=O)OCC [ethyl decanoate]	0.014
CCCCCC(=O)OC [methyl hexanoate]	0.019
CCCCCC(=O)OCC [ethyl hexanoate]	0.014

Reported Henry solubility constant Hcp, compound CCCCCCCC(=O)OCC [ethyl octanoate] : ____
0.011

Would you kindly repeat that for CCCCCCCC(=O)OC [methyl octanoate] ?
0.0099

Would you kindly repeat that for CCCC(=O)OC [methyl butanoate] ?
0.037
